tested on: Mycobacterium tuberculosis Erdman (autoluminescent); assay: total FIC90 (Loewe) at 90% inhibition, three-drug combination (log2); higher = more antagonistic; conditions: in vitro model: valerate; time point: terminal (~4-5 doublings, model-specific)
Readout type: total FIC90
# output: bare number, no unit

Reference set (2 entries):
>  <Compound>
COc1nc2ccc(Br)cc2cc1[C@@H](c1ccccc1)[C@@](O)(CCN(C)C)c1cccc2ccccc12 [bedaquiline] + CC(C)/N=c1\cc2n(-c3ccc(Cl)cc3)c3ccccc3nc-2cc1Nc1ccc(Cl)cc1 [clofazimine] + CO[C@H]1/C=C/O[C@@]2(C)Oc3c(C)c(O)c4c(O)c(c(/C=N/N5CCN(C)CC5)c(O)c4c3C2=O)NC(=O)/C(C)=C\C=C\[C@H](C)[C@H](O)[C@@H](C)[C@@H](O)[C@@H](C)[C@H](OC(C)=O)[C@@H]1C [rifampicin]

>  <Readout type>
total FIC90

>  <Observed result>
0.54

$$$$
>  <Compound>
NNC(=O)c1ccncc1 [isoniazid] + NC(=O)c1cnccn1 [pyrazinamide] + CO[C@H]1/C=C/O[C@@]2(C)Oc3c(C)c(O)c4c(O)c(c(/C=N/N5CCN(C)CC5)c(O)c4c3C2=O)NC(=O)/C(C)=C\C=C\[C@H](C)[C@H](O)[C@@H](C)[C@@H](O)[C@@H](C)[C@H](OC(C)=O)[C@@H]1C [rifampicin]

>  <Readout type>
total FIC90

>  <Observed result>
-1.36

$$$$

# return recorded total FIC90 for input COc1nc2ccc(Br)cc2cc1[C@@H](c1ccccc1)[C@@](O)(CCN(C)C)c1cccc2ccccc12 [bedaquiline] + NNC(=O)c1ccncc1 [isoniazid] + CC(=O)NC[C@H]1CN(c2ccc(N3CCOCC3)c(F)c2)C(=O)O1 [linezolid]
0.84

---

tested on: Mycobacterium tuberculosis Erdman (autoluminescent); experiment: AUC25, normalised area under dose response up to IC25 (fraction (0-1)); higher = more potent at low dose; details: in vitro model: butyrate; time point: terminal (~4-5 doublings, model-specific)
Please use yes whenever AUC25 is not below 0.07, and no whenever it is.

>  <Compound>
CC[C@@H](CO)NCCN[C@@H](CC)CO [ethambutol] + CC(=O)NC[C@H]1CN(c2ccc(N3CCOCC3)c(F)c2)C(=O)O1 [linezolid]

>  <Category>
yes

$$$$
>  <Compound>
CC(=O)NC[C@H]1CN(c2ccc(N3CCOCC3)c(F)c2)C(=O)O1 [linezolid] + CO[C@H]1/C=C/O[C@@]2(C)Oc3c(C)c(O)c4c(O)c(c(/C=N/N5CCN(C)CC5)c(O)c4c3C2=O)NC(=O)/C(C)=C\C=C\[C@H](C)[C@H](O)[C@@H](C)[C@@H](O)[C@@H](C)[C@H](OC(C)=O)[C@@H]1C [rifampicin]

>  <Category>
no

$$$$
>  <Compound>
CC[C@@H](CO)NCCN[C@@H](CC)CO [ethambutol] + COc1c(N2C[C@@H]3CCCN[C@@H]3C2)c(F)cc2c(=O)c(C(=O)O)cn(C3CC3)c12 [moxifloxacin]

>  <Category>
no

$$$$
>  <Compound>
CC(=O)NC[C@H]1CN(c2ccc(N3CCOCC3)c(F)c2)C(=O)O1 [linezolid] + COc1c(N2C[C@@H]3CCCN[C@@H]3C2)c(F)cc2c(=O)c(C(=O)O)cn(C3CC3)c12 [moxifloxacin]

>  <Category>
no

$$$$
>  <Compound>
CO[C@H]1/C=C/O[C@@]2(C)Oc3c(C)c(O)c4c(O)c(c(/C=N/N5CCN(C6CCCC6)CC5)c(O)c4c3C2=O)NC(=O)/C(C)=C\C=C\[C@H](C)[C@H](O)[C@@H](C)[C@@H](O)[C@@H](C)[C@H](OC(C)=O)[C@@H]1C [rifapentine] + CO[C@H]1/C=C/O[C@@]2(C)Oc3c(C)c(O)c4c(O)c(c(/C=N/N5CCN(C)CC5)c(O)c4c3C2=O)NC(=O)/C(C)=C\C=C\[C@H](C)[C@H](O)[C@@H](C)[C@@H](O)[C@@H](C)[C@H](OC(C)=O)[C@@H]1C

>  <Category>
yes

$$$$
>  <Compound>
COc1nc2ccc(Br)cc2cc1[C@@H](c1ccccc1)[C@@](O)(CCN(C)C)c1cccc2ccccc12 [bedaquiline] + O=[N+]([O-])c1cn2c(n1)OC[C@@H](OCc1ccc(OC(F)(F)F)cc1)C2 [pretomanid]

>  <Category>
yes

$$$$

Test whether the compound COc1nc2ccc(Br)cc2cc1[C@@H](c1ccccc1)[C@@](O)(CCN(C)C)c1cccc2ccccc12 [bedaquiline] + NC(=O)c1cnccn1 [pyrazinamide] records AUC25 of 0.07 or higher.
yes

Test whether the compound COc1nc2ccc(Br)cc2cc1[C@@H](c1ccccc1)[C@@](O)(CCN(C)C)c1cccc2ccccc12 [bedaquiline] + COc1c(N2C[C@@H]3CCCN[C@@H]3C2)c(F)cc2c(=O)c(C(=O)O)cn(C3CC3)c12 [moxifloxacin] records AUC25 of 0.07 or higher.
no
